Values from patent USRE37781E1

- TARGET_SYSTEM: HIV protease (Human immunodeficiency virus type 1 group M subtype B, UniProt P04585)
- Construct: plasmid containing HIV protease under the control of an inducible T7 promoter; made in house; host or cells: E. coli (inclusion bodies, T7 promoter)
- EXPERIMENT_DESCRIPTION: biochemical
- Design: species or system HIV-1
- MEASUREMENT_PARAMETERS: Ki, Table 1c, cyclic guanidines
- Protocol: HIV Protease Inhibition Assay—Spectroscopic Method Inclusion bodies were solubilized in 8M urea, 50 mM tris pH 8.0. Protease activity was recovered by dilution 20-fold into buffer containing 50 mM sodium acetate pH 5.5, 1 mM EDTA, 10% glycerol and 5% ethylene glycol. Enzyme was used at a final concentration of 1.0-10 ug/ml. Stock solutions of 10 mM were prepared in DMSO. All further dilutions were done in DMSO.
READOUT_LABEL: Ki

COMPOUND	OBSERVED
N#CN=C1N(Cc2ccc([N+](=O)[O-])cc2)C(Cc2ccccc2)C(O)C(O)C(Cc2ccccc2)N1Cc1ccc([N+](=O)[O-])cc1 (stereo not shown)	10 to 1000 nM

---

Form field: IC90 (one value per entry).
- System: HIV-1 (RF) in MT-2 cells
- EXPERIMENT_DESCRIPTION: microbe, parasite or virus in culture
- Type: cell-based
- MEASUREMENT_PARAMETERS: Human immunodeficiency virus 1, MT2, 48 h, Table 2d; class symbols; read-out: IC90
READOUT_LABEL: IC90

COMPOUND	READOUT_LABEL	OBSERVED
O=C1NC(Cc2ccccc2)C(O)C(O)C(Cc2ccccc2)N1CCCCCO (centres unmarked) [Example 15VG]	IC90	< 10 µg/mL
NC(=O)c1cccc(CN2C(=O)N(Cc3cccc(C(N)=O)c3)C(Cc3ccccc3)C(O)C(O)C2Cc2ccccc2)c1 (centres unmarked) [10G]	IC90	< 10 µg/mL
O=C(Nc1cccc(CN2C(=O)N(Cc3cccc(NC(=O)OCc4ccccc4)c3)C(Cc3ccccc3)C(O)C(O)C2Cc2ccccc2)c1)OCc1ccccc1 (centres unmarked) [15E]	IC90	> 100 µg/mL
O=C1N(Cc2cccc(NS(=O)(=O)C(F)(F)F)c2)C(Cc2ccccc2)C(O)C(O)C(Cc2ccccc2)N1Cc1cccc(NS(=O)(=O)C(F)(F)F)c1 (centres unmarked) [15B]	IC90	10 to 100 µg/mL
CC(=O)Oc1ccc(CN2C(=O)N(Cc3ccc(OC(C)=O)cc3)C(Cc3ccccc3)C(O)C(O)C2Cc2ccccc2)cc1 (centres unmarked) [10L]	IC90	< 10 µg/mL
O=C1N(Cc2cccc(O)c2)C(Cc2ccccc2)C(O)C(O)C(Cc2ccccc2)N1Cc1ccccn1 (centres unmarked) [10Q]	IC90	< 10 µg/mL
O=C1N(CCCCCO)C(Cc2ccccc2)C(O)C(O)C(Cc2ccccc2)N1CC1CC1 (centres unmarked) [Example 15VU]	IC90	< 10 µg/mL
O=C1N(CCCCCCCCO)C(Cc2ccccc2)C(O)C(O)C(Cc2ccccc2)N1CCCCCCCCO (centres unmarked) [Example 12K]	IC90	< 10 µg/mL
COC(=O)CCCCCN1C(=O)N(CCCCCC(=O)OC)C(Cc2ccccc2)C(O)C(O)C1Cc1ccccc1 (centres unmarked) [Example 12H]	IC90	10 to 100 µg/mL
CC(O)c1cccc(CN2C(=O)N(Cc3cccc(C(C)O)c3)C(Cc3ccccc3)C(O)C(O)C2Cc2ccccc2)c1 (centres unmarked) [Example 9H]	IC90	< 10 µg/mL
CC(=O)c1cccc(CN2C(=O)N(Cc3cccc(Br)c3)C(Cc3ccccc3)C(O)C(O)C2Cc2ccccc2)c1 (centres unmarked) [Example 9o]	IC90	< 10 µg/mL
CC(=O)c1cccc(CN2C(=O)N(Cc3cccc(C(C)=O)c3)C(Cc3ccccc3)C(O)C(O)C2Cc2ccccc2)c1 (centres unmarked) [Example 9P]	IC90	< 10 µg/mL
O=C1N(Cc2cccc(OCc3ccccc3)c2)C(Cc2ccccc2)C(O)C(O)C(Cc2ccccc2)N1Cc1cccc([N+](=O)[O-])c1 (centres unmarked) [11P]	IC90	< 10 µg/mL
O=C1N(CCCCC(O)CO)C(Cc2ccccc2)C(O)C(O)C(Cc2ccccc2)N1CCCCC(O)CO (centres unmarked) [Example 13I]	IC90	> 100 µg/mL
CCOC(=O)c1ccc(CN2C(=O)N(Cc3ccc(C(=O)OCC)cc3)C(Cc3ccccc3)C(O)C(O)C2Cc2ccccc2)cc1 (centres unmarked) [Example 11F]	IC90	> 100 µg/mL
O=C1N(Cc2cccc(-c3nnn[nH]3)c2)C(Cc2ccccc2)C(O)C(O)C(Cc2ccccc2)N1Cc1cccc(-c2nnn[nH]2)c1 (centres unmarked) [9T]	IC90	> 100 µg/mL
O=C1N(CCCCCO)C(Cc2ccccc2)C(O)C(O)C(Cc2ccccc2)N1Cc1ccccc1 (centres unmarked) [Example 15VI]	IC90	< 10 µg/mL
CC(C)(C)Sc1ncccc1CN1C(=O)N(Cc2cccnc2SC(C)(C)C)C(Cc2ccccc2)C(O)C(O)C1Cc1ccccc1 (centres unmarked) [Example 14B]	IC90	< 10 µg/mL
O=C1N(CCOCCO)C(Cc2ccccc2)C(O)C(O)C(Cc2ccccc2)N1CCOCCO (centres unmarked) [Example 12U]	IC90	10 to 100 µg/mL
CCCCC(O)CN1C(=O)NC(Cc2ccccc2)C(O)C(O)C1Cc1ccccc1 (centres unmarked) [Example 15VM]	IC90	> 50 µg/mL
CN(C)c1cccc(CN2C(=O)N(Cc3cccc(N(C)C)c3)C(Cc3ccccc3)C(O)C(O)C2Cc2ccccc2)c1 (centres unmarked) [15I]	IC90	< 10 µg/mL
O=Cc1cc(CN2C(=O)N(Cc3ccc(O)cc3)C(Cc3ccccc3)C(O)C(O)C2Cc2ccccc2)ccc1O (centres unmarked) [Example 11E]	IC90	< 10 µg/mL
CC(C)NC(=O)c1cccc(CN2C(=O)N(Cc3cccc(C(=O)O)c3)C(Cc3ccccc3)C(O)C(O)C2Cc2ccccc2)c1 (centres unmarked) [15WN]	IC90	< 10 µg/mL
O=C1N(CCCCC(O)CBr)C(Cc2ccccc2)C(O)C(O)C(Cc2ccccc2)N1CCCCC(O)CBr (centres unmarked) [Example 13G]	IC90	< 10 µg/mL
O=C(NCc1ccccc1)Oc1cccc(CN2C(=O)N(Cc3cccc(OC(=O)NCc4ccccc4)c3)C(Cc3ccccc3)C(O)C(O)C2Cc2ccccc2)c1 (centres unmarked) [Example 9L]	IC90	< 10 µg/mL
O=C1N(Cc2cccc(C=NCCO)c2)C(Cc2ccccc2)C(O)C(O)C(Cc2ccccc2)N1Cc1cccc(C=NCCO)c1 (centres unmarked) [Example 9J]	IC90	< 10 µg/mL
O=C1N(Cc2cccc(C(O)CO)c2)C(Cc2ccccc2)C(O)C(O)C(Cc2ccccc2)N1Cc1cccc(C(O)CO)c1 (centres unmarked) [11K]	IC90	< 10 µg/mL
CC(=O)CCCCN1C(=O)N(CCCCC(C)=O)C(Cc2ccccc2)C(O)C(O)C1Cc1ccccc1 (centres unmarked) [Example 15WB]	IC90	10 to 100 µg/mL
CCNC(=O)c1cccc(CN2C(=O)N(Cc3cccc(C(=O)OC)c3)C(Cc3ccccc3)C(O)C(O)C2Cc2ccccc2)c1 (centres unmarked) [11U]	IC90	< 10 µg/mL

---

// reported melting point for each item listed

COMPOUND	melting point, °C
N#CN=C1N(Cc2cccc(CO)c2)C(Cc2ccccc2)C(O)C(O)C(Cc2ccccc2)N1Cc1cccc(CO)c1 (stereo not shown) [Example 1CO]	193.8
CC(C)=CCN1C(=NC#N)N(CC=C(C)C)C(Cc2ccccc2)C(O)C(O)C1Cc1ccccc1 (stereo not shown) [Example 1CI]	72.9

---

Listing of entries alongside the reported melting point.
Counter-ions that a name gives are not always drawn.

COMPOUND	melting point
O=C(O)c1cccc(CN2C(=O)N(Cc3ccccc3)C(Cc3ccccc3)C(O)C(O)C2Cc2ccccc2)c1 (centres unmarked) [15WP]	122 to 124 °C
CC(C)=CCN1C(=O)N(CC=C(C)C)C(Cc2ccccc2)C(O)C(O)C1Cc1ccccc1 (centres unmarked) [Example 1AC]	160 to 163 °C
O=C1N(CCCc2ccccc2)C(Cc2ccccc2)C(O)C(O)C(Cc2ccccc2)N1CCCc1ccccc1 (centres unmarked) [Example 2B]	120.7 °C
CC(C)CCCCN1C(=O)N(CCCCC(C)C)C(Cc2ccccc2)C(O)C(O)C1Cc1ccccc1 (centres unmarked) [Example 1AN]	105 to 107 °C
N#Cc1ccc(CN2C(=O)N(Cc3ccc(C#N)cc3)C(Cc3ccccc3)C(O)C(O)C2Cc2ccccc2)cc1 (centres unmarked) [Example 5W]	140 to 143 °C
N#CN=C1N(Cc2ccc(O)cc2)C(Cc2ccccc2)C(O)C(O)C(Cc2ccccc2)N1Cc1ccc(O)cc1 (centres unmarked) [Example 1BU]	103.3 °C
NC(=O)c1cccc(CN2C(=O)N(CC3CC3)C(Cc3ccccc3)C(O)C(O)C2Cc2ccccc2)c1 (centres unmarked) [15WV]	128 to 130 °C
O=C1NC(Cc2ccccc2)C(O)C(O)C(Cc2ccccc2)N1Cc1cccc(CO)c1 (centres unmarked) [15WI]	176 to 177 °C
O=C1N(Cc2cccc(OCc3ccccc3)c2)C(Cc2ccccc2)C(O)C(O)C(Cc2ccccc2)N1Cc1cccc(OCc2ccccc2)c1 (centres unmarked) [Example 5F]	165 to 166 °C
CCOc1cccc(CN2C(=O)N(Cc3cccc(OCC)c3)C(Cc3ccccc3)C(O)C(O)C2Cc2ccccc2)c1 (centres unmarked) [Example 5N]	185 to 186 °C
Nc1cccc(CN2C(=O)N(CC3CC3)C(Cc3ccccc3)C(O)C(O)C2Cc2ccccc2)c1 (centres unmarked) (as salt: HCl) [15G]	108.9 °C
O=C1N(Cc2cccc(O)c2)C(Cc2ccccc2)C(O)C(O)C(Cc2ccccc2)N1Cc1ccc2ccccc2c1 (centres unmarked) [10K]	137 to 138 °C
C=CCN1C(=O)NC(Cc2ccccc2)C(O)C(O)C1Cc1ccccc1 (centres unmarked) [Example 5A]	180 to 182 °C
N#CN=C1N(Cc2ccccc2)C(Cc2ccccc2)C(O)C(O)C(Cc2ccccc2)N1Cc1ccccc1 (centres unmarked) [Example 1BZ]	94 °C
CCCNC(=O)c1cccc(CN2C(=O)N(Cc3cccc(C(=O)O)c3)C(Cc3ccccc3)C(O)C(O)C2Cc2ccccc2)c1 (centres unmarked) [15WO]	151 to 153 °C
NC(=NO)c1cccc(CN2C(=O)N(Cc3ccc4ccccc4c3)C(Cc3ccccc3)C(O)C(O)C2Cc2ccccc2)c1 (centres unmarked) [15AN]	192 to 193 °C
O=C(Nc1cccc(CN2C(=O)N(Cc3cccc(NC(=O)OCc4ccccc4)c3)C(Cc3ccccc3)C(O)C(O)C2Cc2ccccc2)c1)OCc1ccccc1 (centres unmarked) [15E]	190.7 °C
N#CN=C1N(Cc2ccc(CO)cc2)C(Cc2ccccc2)C(O)C(O)C(Cc2ccccc2)N1Cc1ccc(CO)cc1 (centres unmarked) [Example 1CN]	100.9 °C
OC1C(O)C(Cc2ccccc2)N(CC2CC2)C(=S)N(CC2CC2)C1Cc1ccccc1 (centres unmarked) [Example 27B]	84 to 86 °C
N#Cc1cccc(CN2C(=O)N(Cc3cccc(C#N)c3)C(Cc3ccccc3)C(O)C(O)C2Cc2ccccc2)c1 (centres unmarked) [Example 4P]	225 to 227 °C
O=C1N(Cc2cc(F)cc(F)c2)C(Cc2ccccc2)C(O)C(O)C(Cc2ccccc2)N1Cc1cc(F)cc(F)c1 (centres unmarked) [Example 6ZC]	167.9 °C
O=C1N(Cc2cccc(C=NOCc3ccccc3)c2)C(Cc2ccccc2)C(O)C(O)C(Cc2ccccc2)N1Cc1cccc(C=NOCc2ccccc2)c1 (centres unmarked) [Example 9D]	170.5 to 171 °C
Nc1cccc(CN2C(=O)N(Cc3cccc(O)c3)C(Cc3ccccc3)C(O)C(O)C2Cc2ccccc2)c1 (centres unmarked) [11Q]	116 to 120 °C
O=C1N(Cc2ccc(CO)cc2)C(Cc2ccccc2)C(O)C(O)C(Cc2ccccc2)N1Cc1cccc([N+](=O)[O-])c1 (centres unmarked) [15J]	92 °C
Nc1ccc(CN2C(=O)N(Cc3ccc(N)cc3)C(Cc3ccccc3)C(O)C(O)C2Cc2ccccc2)cc1 (centres unmarked) [15CQ]	114 to 116 °C
CC(C)NC(=O)c1cccc(CN2C(=O)N(Cc3cccc(C(=O)O)c3)C(Cc3ccccc3)C(O)C(O)C2Cc2ccccc2)c1 (centres unmarked) [15WN]	164 to 167 °C
O=C1N(Cc2cccc(OC(F)(F)F)c2)C(Cc2ccccc2)C(O)C(O)C(Cc2ccccc2)N1Cc1cccc(OC(F)(F)F)c1 (centres unmarked) [Example 2J]	128.3 °C
N#CN=C1N(Cc2cccc(N)c2)C(Cc2ccccc2)C(O)C(O)C(Cc2ccccc2)N1Cc1cccc(N)c1 (centres unmarked) [Example 1CF]	114.4 °C
O=C1N(Cc2ccc3[nH]ncc3c2)C(Cc2ccccc2)C(O)C(O)C(Cc2ccccc2)N1Cc1ccc2[nH]ncc2c1 (centres unmarked) [15CX]	165 to 170 °C
